Attribution: patent US20240317777A1

biological target: CDK4-CYCLIN D1 (Homo sapiens, UniProt P11802); test: CDK protein kinase inhibition by ADP-Glo assay, CDK4-CYCLIN D1; assay type: biochemical; conditions: ADP-Glo, 1000 μM ATP; Table 27; read-out: CDK4-CYCLIND1, IC50
Sequence (P11802 whole entry): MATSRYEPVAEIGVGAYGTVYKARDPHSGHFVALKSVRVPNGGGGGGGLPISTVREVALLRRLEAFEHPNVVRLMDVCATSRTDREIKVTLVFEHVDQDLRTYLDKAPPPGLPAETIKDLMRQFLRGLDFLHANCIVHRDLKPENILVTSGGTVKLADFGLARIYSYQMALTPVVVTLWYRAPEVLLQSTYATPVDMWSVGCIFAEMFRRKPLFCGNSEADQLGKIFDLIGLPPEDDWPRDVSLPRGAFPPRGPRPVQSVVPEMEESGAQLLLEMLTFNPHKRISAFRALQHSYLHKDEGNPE
Sequence (P24385 whole entry partner): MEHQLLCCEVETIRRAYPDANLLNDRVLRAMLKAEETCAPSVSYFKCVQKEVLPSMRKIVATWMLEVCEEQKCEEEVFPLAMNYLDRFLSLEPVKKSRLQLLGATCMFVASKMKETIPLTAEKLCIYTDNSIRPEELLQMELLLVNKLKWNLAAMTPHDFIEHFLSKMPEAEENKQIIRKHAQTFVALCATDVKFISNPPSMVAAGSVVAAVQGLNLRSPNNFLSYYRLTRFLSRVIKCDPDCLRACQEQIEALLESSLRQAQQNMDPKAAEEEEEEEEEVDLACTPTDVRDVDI
pIC50: −log10 of the molar value.
Items are presented alongside their recorded pIC50.

### Prompt Sample [2H]C1([2H])CC[C@H](C)NC(=O)O[C@@H]2CC[C@@H](C2)c2cc([nH]n2)Nc2ccnc(c2)O1 [Compound 173] — what was its pIC50?
### Response 6.30 to 7.00

### Prompt Let us now turn to [2H]C1([2H])Oc2cc(ccn2)Nc2cc(n[nH]2)[C@H]2CC[C@H](C2)OC(=O)N[C@H]2C[C@H]1C2 [Compound 177]
### Response 7.00 to 7.30
